# system_name: Lysine-specific demethylase 4E (Homo sapiens, UniProt B2RXH2)
# Sequence (B2RXH2 whole entry): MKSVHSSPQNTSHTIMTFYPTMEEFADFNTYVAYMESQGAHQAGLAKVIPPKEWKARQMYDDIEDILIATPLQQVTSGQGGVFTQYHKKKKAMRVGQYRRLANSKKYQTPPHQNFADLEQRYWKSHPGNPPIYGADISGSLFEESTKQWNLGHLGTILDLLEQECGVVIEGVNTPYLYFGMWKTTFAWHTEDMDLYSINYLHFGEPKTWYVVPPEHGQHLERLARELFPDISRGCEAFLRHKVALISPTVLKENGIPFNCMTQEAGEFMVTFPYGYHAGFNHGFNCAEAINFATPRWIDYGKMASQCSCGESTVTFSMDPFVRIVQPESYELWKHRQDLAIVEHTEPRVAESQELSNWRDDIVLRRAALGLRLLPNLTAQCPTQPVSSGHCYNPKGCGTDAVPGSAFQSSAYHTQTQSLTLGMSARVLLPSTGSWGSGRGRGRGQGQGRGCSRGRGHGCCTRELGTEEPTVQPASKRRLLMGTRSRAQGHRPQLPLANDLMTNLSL
# method_summary: Inhibition of KDM4E (unknown origin) after 24 hrs by alphascreen assay

smiles_input | unit_tag | IC50
CCCCCCCCOC(=O)c1ccc(O)c2ncccc12 | µM | 45

* * *

# method_summary: Antiproliferative activity against human SU-DHL6 cells assessed as reduction in cell viability after 120 hrs by ATPlite assay
# Format: functional, cell-based
# experimental_conditions: SU-DHL-6, 120 h
pEC50: −log10 of the molar value.

smiles_input | pEC50
CCN(CCN(C)C)C(=O)CNCc1cc(CNC(=O)C(F)(F)F)ccn1 | > 6.60

* * *

# system_name: Lysine-specific histone demethylase 1A (Homo sapiens)
# method_summary: Inhibition of human recombinant KDM1A using H3 (1 to 21 residues)-K4me2 peptide substrate by fluorescence coupling enzyme assay
pIC50: −log10 of the molar value.

smiles_input | pIC50
O=C(N[C@@H](CCCCN[C@@H]1C[C@H]1c1ccc(F)cc1)C(=O)NCc1ccc(F)cc1)c1ccccc1 | > 6.00
